system: Escherichia coli; experiment: Antimicrobial activity against Escherichia coli ML4909 by broth dilution method; format: functional
Test Readout: MIC (µg/mL)
Quick reminder: number only, in µg/mL, skip the unit.

COc1cc(Cc2cnc(N)nc2N)cc(OC)c1OC    0.12

// fetch MIC given entry CC(C)(O/N=C(\C(=O)N[C@@H]1C(=O)N2C(C(=O)[O-])=C(C[n+]3ccccc3)CS[C@H]12)c1csc(N)n1)C(=O)O 0.25

// fetch MIC given entry CC1(C)S[C@@H]2[C@H](NC(=O)[C@H](N)c3ccc(O)cc3)C(=O)N2[C@H]1C(=O)O 2

// fetch MIC given entry CO[C@@]1(NC(=O)Cc2cccs2)C(=O)N2C(C(=O)O)=C(COC(N)=O)CS[C@@H]21 4

// fetch MIC given entry CCN1CCN(C(=O)N[C@@H](C(=O)N[C@@H]2C(=O)N3[C@@H]2SC(C)(C)[C@@H]3C(=O)O)c2ccccc2)C(=O)C1=O 2

====

system: Escherichia coli; assay: Antimicrobial activity against Escherichia coli TUM4670 by broth dilution method; type: functional
Test Readout: MIC (mg/L)
Quick reminder: number only, in mg/L, skip the unit.

Specify the recorded MIC for CO/N=C(\C(=O)N[C@@H]1C(=O)N2C(C(=O)O)=C(COC(C)=O)CS[C@H]12)c1csc(N)n1 , system: Escherichia coli. 16

Specify the recorded MIC for CC(C)(O/N=C(\C(=O)N[C@@H]1C(=O)N2C(C(=O)[O-])=C(C[n+]3ccccc3)CS[C@H]12)c1csc(N)n1)C(=O)O , system: Escherichia coli. 128

====

Measured MIC of individual entries
tested on: Escherichia coli; assay: Antimicrobial activity against Escherichia coli ML4909 by broth dilution method; assay type: functional

Solved cases (2 shown):
O=C(O)c1cn(C2CC2)c2cc(N3CCNCC3)c(F)cc2c1=O    ≤ 0.06 µg/mL
CO/N=C(\C(=O)N[C@@H]1C(=O)N2C(C(=O)[O-])=C(C[N+]3(C)CCCC3)CS[C@H]12)c1csc(N)n1    ≤ 0.06 µg/mL

// fetch MIC given entry CO/N=C(\C(=O)N[C@@H]1C(=O)N2C(C(=O)O)=C(COC(C)=O)CS[C@H]12)c1csc(N)n1 ≤ 0.06 µg/mL

====

Measured MIC of individual entries
tested on: Escherichia coli; test: Antimicrobial activity against Escherichia coli TUM4670 by broth dilution method; type: functional
Quick reminder: number only, in µg/mL, skip the unit.

Solved cases (2 shown):
C[C@@H](O)[C@H]1C(=O)N2C(C(=O)O)=C(SCCNC=N)C[C@H]12 [IMIPENEM ANHYDROUS]    0.25
CO/N=C(\C(=O)N[C@@H]1C(=O)N2C(C(=O)[O-])=C(C[N+]3(C)CCCC3)CS[C@H]12)c1csc(N)n1    1

Consider the additional molecule presented here.
// fetch MIC given entry CO[C@@]1(NC(=O)Cc2cccs2)C(=O)N2C(C(=O)O)=C(COC(N)=O)CS[C@@H]21 [CEFOXITIN] 128

====

Measured MIC of individual entries
system: Escherichia coli; experiment: Antimicrobial activity against Escherichia coli TUM4670 by broth dilution method; type: functional

CC1(C)S[C@@H]2[C@H](NC(=O)[C@H](N)c3ccc(O)cc3)C(=O)N2[C@H]1C(=O)O [AMOXICILLIN]    > 128 µg/mL
COc1cc(Cc2cnc(N)nc2N)cc(OC)c1OC [TRIMETHOPRIM]    ≤ 0.06 µg/mL
O=C(O)c1cn(C2CC2)c2cc(N3CCNCC3)c(F)cc2c1=O [CIPROFLOXACIN]    ≤ 0.06 µg/mL

Consider the additional molecule presented here.
// fetch MIC given entry CCN1CCN(C(=O)N[C@@H](C(=O)N[C@@H]2C(=O)N3[C@@H]2SC(C)(C)[C@@H]3C(=O)O)c2ccccc2)C(=O)C1=O [PIPERACILLIN] > 128 µg/mL
